# TARGET ENTITY: CSNK1D (Homo sapiens (Human))
# Sequence (P48730 whole entry): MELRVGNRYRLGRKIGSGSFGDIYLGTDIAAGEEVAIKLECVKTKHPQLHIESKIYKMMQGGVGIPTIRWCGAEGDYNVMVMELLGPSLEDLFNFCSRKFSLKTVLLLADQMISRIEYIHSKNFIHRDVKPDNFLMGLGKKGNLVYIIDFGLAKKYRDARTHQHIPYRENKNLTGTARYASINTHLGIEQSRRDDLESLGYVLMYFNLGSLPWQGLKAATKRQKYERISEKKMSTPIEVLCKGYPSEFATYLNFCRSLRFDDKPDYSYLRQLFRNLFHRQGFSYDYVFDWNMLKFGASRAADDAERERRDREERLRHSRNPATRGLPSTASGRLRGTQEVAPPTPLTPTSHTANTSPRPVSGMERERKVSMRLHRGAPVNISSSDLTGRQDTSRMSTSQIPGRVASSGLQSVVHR

COMPOUND	IC50 / nM
Cc1ccccc1-c1c(-c2ccnc(NC(=O)C(C)c3ccc(F)cc3)c2)[nH]c2ccn(C)c(=O)c12 (racemic) [Example 111]	22
CC(C(=O)Nc1cc(-c2[nH]c3ccn(C)c(=O)c3c2-c2ccc(F)cc2)ccn1)c1ccc(F)cc1 (single isomer, unassigned; (-)) [Example 101]	5.6
CC1(C)Cc2[nH]c(-c3ccnc(NC(=O)Cc4ccc(F)cc4)c3)c(-c3ccccc3F)c2C(=O)N1 [Example 84]	4.8
Cc1cn(C)c(=O)c2c(-c3ccc(F)cc3)c(-c3ccnc(NC(=O)C(CC(F)F)c4ccc(F)cc4)c3)[nH]c12 (racemic) [Example 34]	5.3
CC(C(=O)Nc1cc(-c2[nH]c3c(c2-c2ccccc2)C(=O)NCC3(C)C)ccn1)c1ccc(F)cc1 (single isomer, unassigned) [Example 47]	9.6
CN1CCc2[nH]c(-c3ccnc(NC(=O)Cc4ccc(F)cc4)c3)c(-c3ccccc3)c2C1=O [Example 1]	3.7
CN1CC(CC(F)(F)F)c2[nH]c(-c3ccnc(NC(=O)C(CC(F)F)c4ccc(F)cc4)c3)c(-c3ccc(F)cc3)c2C1=O (centres unmarked) [Example 25]	5
CC1(C)Cc2[nH]c(-c3ccnc(NC(=O)Cc4ccc(F)cc4)c3)c(-c3ccccc3)c2C(=O)N1 [Example 82]	2.4
CN1CC(CC(F)(F)F)c2[nH]c(-c3ccnc(NC(=O)C(CC(F)F)c4ccc(F)cc4)c3)c(-c3ccccc3)c2C1=O (centres unmarked) [Example 17]	4.3
Cc1ncc(-c2c(-c3ccnc(NC(=O)C(CC(F)F)c4ccc(F)cc4)c3)[nH]c3c2C(=O)N(C)CC3)s1 (racemic) [Example 129]	13
Cc1cccc(-c2c(-c3ccnc(NC(=O)Cc4ccc(F)cc4)c3)[nH]c3c2C(=O)NC(C)(C)C3)c1 [Example 86]	5.2
CC(C(=O)Nc1cc(-c2[nH]c3c(c2-c2ccc(F)cc2)C(=O)NC(C)(C)C3)ccn1)c1ccc(F)cc1 (single isomer, unassigned) [Example 95]	4.6
Cn1cc(CC(F)F)c2[nH]c(-c3ccnc(NC(=O)C(CC(F)F)c4ccc(F)cc4)c3)c(-c3ccccc3)c2c1=O (single isomer, unassigned) [Example 149]	3.8
CC(C(=O)Nc1cc(-c2[nH]c3ccn(C)c(=O)c3c2-c2cc(F)c(F)c(F)c2)ccn1)c1ccc(F)cc1 (racemic) [Example 117]	7.4
